Observed HepSE_hepatic necrosis, system Hepatotoxicity. Note: call rule not given here.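 Note: score of hepatic side effects for hepatic necrosis, drawn from the training data of DILIps, a prediction system for drug-induced liver injury.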

Known HepSE_hepatic necrosis results, listed for orientation:
compound="CC[C@H](C)C(=O)O[C@H]1C[C@H](O)C=C2C=C[C@H](C)[C@H](CC[C@@H](O)C[C@@H](O)CC(=O)O)[C@H]21 [PRAVASTATIN]" result=1
compound="CC1(C)O[C@@H]2C[C@H]3[C@@H]4CCC5=CC(=O)C=C[C@]5(C)[C@H]4[C@@H](O)C[C@]3(C)[C@]2(C(=O)CO)O1 [DESONIDE]" result=0

Turning now to a further compound:
# input Any idea what HepSE_hepatic necrosis was measured for CC1=C(C(=O)O)N2C(=O)[C@@H](NC(=O)[C@H](N)C3=CCC=CC3)[C@H]2SC1 [CEPHRADINE] ?
# output 0

Origin of measurements: ChEMBL document CHEMBL1909294
